Cited source: PubChem BioAssay

# System: Lefty1
# TEST_METHOD_NOTES: Lefty1 binders on small-molecule microarrays, primary screen, biochemical, small-molecule microarray, 635/667 nm fluorescence (AID 1139)
# CONDITIONS_USED: small-molecule microarray binding, fluorescence 635/667; higher = more signal
The entries below are paired with their reported composite z-score.
ASSAY_READOUT: composite z-score

{"COMPOUND": "C=CCOC(=O)[C@@H]1[C@H]2C(=O)O[C@H](c3ccccc3)[C@H](c3ccccc3)N2[C@H](c2ccc(OCCOC(=O)[C@H]3C[C@H]4C(=O)NCC(=O)N4[C@H]3c3ccc(O)cc3)cc2)[C@@]12C(=O)Nc1ccc(I)cc12", "READING": 1.06}
{"COMPOUND": "C=CCC(OC(C)=O)[C@@H]1[C@@H](N(Cc2ccc(-c3cccc(C(F)(F)F)c3)o2)C(=O)Cc2ccc(F)cc2)c2cc(OCCCO)ccc2N1C(=O)c1ccc2ccccc2n1 (stereo partly drawn)", "READING": -0.286}
{"COMPOUND": "CC(C)[C@@H](C(=O)O)n1cc(-c2ccccc2)nn1", "READING": -0.0617}
